# Target of assay: T1, recombinant cynomolgus monkey sclerostin (cynomolgus monkey)
# T1 construct: also called cyno sclerostin; Cyno sclerostin
# Protocol summary: SPR
Reported kon values follow for various binders
I only need the number, in M⁻¹ s⁻¹, no unit after it.

Consider the reported kon for these binders:
INSERT INTO assay_data (binder, recorded_number) VALUES
  ('AE10-6-AM7 (antibody, V domains shown, converted into IgG; also called rHC + LC S4 clone 131) VH: EVQLVQSGAEVKKPGASVKVSCKVSGYTLTELSMHWVRQAPGKGLEWMGGFDPEDGETIYAQKFQGRVTMTEDTSTDTAYMELSSLRSEDTAVYYCATDTVGYWEKFFQHWGQGTLVTVSS VL: QAVVTQEPSLTVSPGGTVTLTCGSSTGTVTIDHYPYWFQQKPGQAPRTLISDTDDKHSWTPARFSGSLLGGKAALTLSGAQPEDEAEYYCLLDYGGRFVFGGGTKLTVL', '7e+06'),
  ('AE10-6-AM8 (antibody, V domains shown, converted into IgG) VH: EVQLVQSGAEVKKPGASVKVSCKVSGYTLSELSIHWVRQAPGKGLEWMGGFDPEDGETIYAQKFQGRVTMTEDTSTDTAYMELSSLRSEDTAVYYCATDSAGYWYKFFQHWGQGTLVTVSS VL: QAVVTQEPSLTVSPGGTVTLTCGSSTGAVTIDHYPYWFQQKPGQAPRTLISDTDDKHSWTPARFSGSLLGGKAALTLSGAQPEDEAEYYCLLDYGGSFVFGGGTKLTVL', '7.7e+06');

API: the following record is the query input.
Input: State the recorded kon for this entry: AE10-6-AM2 (antibody, V domains shown, converted into IgG; also called rHC + LC S4 clone 102) VH: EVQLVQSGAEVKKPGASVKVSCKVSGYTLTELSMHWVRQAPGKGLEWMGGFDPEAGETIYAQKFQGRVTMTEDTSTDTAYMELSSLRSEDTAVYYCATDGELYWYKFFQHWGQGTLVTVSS VL: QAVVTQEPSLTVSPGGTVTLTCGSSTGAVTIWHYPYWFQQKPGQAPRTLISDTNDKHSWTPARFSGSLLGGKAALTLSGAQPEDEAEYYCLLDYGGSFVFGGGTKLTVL
Output: 3.6e+06

Source listed as patent US20150266977A1.
